Molecular target: TNFα (Homo sapiens, UniProt P01375)
Sequence (P01375 77-233 limits assumed): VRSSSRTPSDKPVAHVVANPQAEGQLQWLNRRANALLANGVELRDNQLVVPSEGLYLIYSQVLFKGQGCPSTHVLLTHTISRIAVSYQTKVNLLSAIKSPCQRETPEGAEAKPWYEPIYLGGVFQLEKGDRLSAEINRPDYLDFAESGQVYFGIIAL
Test: TNFα Induced HEK Blue Cellular Assay
Assay type: cell-based
Details: HEK Blue TNFα reporter cells, TNFα 100 pg/ml, 24 hrs at 37° C., secreted alkaline phosphatase (QUANTI-Blue) read at 620 nm; read-out: IC50 value
pIC50: −log10 of the molar value.
assayMetric: pIC50

molecule	assayMetric	result
CN1C(=O)c2cccc(OC(F)F)c2[C@H]2C[C@@H]1c1nc3ccc(-c4ccc(P(C)(C)=O)c(F)c4)cc3n12	pIC50	> 7.00
CP(C)(=O)c1ccc(-c2ccc3nc4n(c3c2)[C@@H]2C[C@H]4NC(=O)c3cccc(OC(F)F)c32)cc1F	pIC50	> 7.00
[2H]C([2H])([2H])N1C(=O)c2cccc(OC(F)F)c2[C@H]2C[C@@H]1c1nc3cc(F)c(-c4ccc(P(C)(C)=O)c(F)c4)cc3n12	pIC50	> 7.00
[2H]C([2H])([2H])N1C(=O)c2cccc(OC(F)F)c2[C@H]2C[C@@H]1c1nc3ccc(-c4ccc(P(C)(C)=O)nc4)cc3n12	pIC50	> 7.00
CCN1C(=O)c2cccc(OC(F)F)c2[C@H]2C[C@@H]1c1nc3ccc(-c4ccc(P(C)(C)=O)c(F)c4)cc3n12	pIC50	> 7.00

Tested system TNFα (Homo sapiens, UniProt P01375); pIC50 recorded for CN1C(=O)c2cccc(OC(F)F)c2[C@H]2C[C@@H]1c1nc3ccc(-c4ccc(OCCP(C)(C)=O)nc4)cc3n12 was > 7.00

Tested system TNFα (Homo sapiens, UniProt P01375); pIC50 recorded for CN(CP(C)(C)=O)c1ccc(-c2ccc3nc4n(c3c2)[C@@H]2C[C@H]4N(C)C(=O)c3cccc(OC(F)F)c32)cn1 was > 7.00

Tested system TNFα (Homo sapiens, UniProt P01375); pIC50 recorded for [2H]C([2H])([2H])N1C(=O)c2cccc(OC(F)F)c2[C@H]2C[C@@H]1c1nc3ccc(-c4ccc(P(C)(C)=O)nc4Cl)cc3n12 was > 7.00

###

Molecular target: TNFα (Homo sapiens)
Experiment: TNFα Induced HEK Blue Cellular Assay
Assay type: cell-based
Details: HEK Blue TNFα reporter cells, TNFα 100 pg/ml, 24 hrs at 37° C., secreted alkaline phosphatase (QUANTI-Blue) read at 620 nm; read-out: IC50 value
We begin with a simple list: items and their reported IC50.

Solved cases below.
compound	result
CP(C)(=O)c1c(F)cc(-c2ccc3nc4n(c3c2)[C@@H]2C[C@H]4NC(=O)c3cccc(OC(F)F)c32)cc1F	100 to 1000 nM
CN1C(=O)c2cccc(OC(F)F)c2[C@H]2C[C@@H]1c1nc3ccc(-c4cnc(OCP(C)(C)=O)nc4)cc3n12	100 to 1000 nM
CN1C(=O)c2cccc(OC(F)F)c2[C@H]2C[C@@H]1c1nc3ccc(-c4ccc(P5(=O)CCCC5)nc4)cc3n12	< 100 nM
[2H]C([2H])([2H])N1C(=O)c2cccc(OC(F)F)c2[C@H]2C[C@@H]1c1nc3ccc(-c4ccc(C(C)(C)P(C)(C)=O)nc4)cc3n12	< 100 nM
[2H]C([2H])([2H])N1C(=O)c2cccc(OC(F)F)c2[C@H]2C[C@@H]1c1nc3ccc(-c4ccc(P(C)(C)=O)c(F)n4)cc3n12	< 100 nM
[2H]C([2H])([2H])N1C(=O)c2cccc(OC(F)F)c2[C@H]2C[C@@H]1c1nc3ccc(-c4cc(F)c(C(C)P(C)(C)=O)cc4C)cc3n12 (single isomer, unassigned) [Example 118]	< 100 nM

compound [2H]C([2H])([2H])N1C(=O)c2cccc(OC(F)F)c2[C@H]2C[C@@H]1c1nc3ccc(-c4cnc(P(C)(C)=O)c(C)c4)cc3n12 , IC50 observed: < 100 nM

compound CN1C(=O)c2cccc(OC(F)F)c2[C@H]2C[C@@H]1c1nc3ccc(-c4ccc(CP(C)(C)=O)c(F)c4)cc3n12 , IC50 observed: < 100 nM

compound [2H]C([2H])([2H])N1C(=O)c2cccc(OC(F)F)c2[C@H]2C[C@@H]1c1nc3ccc(-c4ccc(P(C)(C)=O)nc4C)cc3n12 , IC50 observed: < 100 nM

compound CCP(=O)(CC)c1ccc(-c2ccc3nc4n(c3c2)[C@@H]2C[C@H]4NC(=O)c3cccc(OC(F)F)c32)cc1F , IC50 observed: < 100 nM

compound [2H]C([2H])([2H])N1C(=O)c2cccc(OC(F)F)c2[C@H]2C[C@@H]1c1nc3ccc(-c4ccc(P(C)(C)=O)c(C(F)F)c4)cc3n12 , IC50 observed: < 100 nM

compound [2H]C([2H])([2H])N1C(=O)c2cccc(OC(F)F)c2[C@H]2C[C@@H]1c1nc3ccc(-c4ccc(P(C)(C)=O)c(F)c4)cc3n12 , IC50 observed: < 100 nM

compound [2H]C([2H])([2H])N1C(=O)c2cccc(OC(F)F)c2[C@H]2C[C@@H]1c1nc3ccc(-c4ccc(C(C)P(C)(C)=O)nc4)cc3n12 (stereo partly drawn) , IC50 observed: < 100 nM

compound CP(C)(=O)c1ccc(-c2ccc3nc4n(c3c2)[C@@H]2C[C@H]4N(C3CC3)C(=O)c3cccc(OC(F)F)c32)cn1 , IC50 observed: < 100 nM

compound [2H]C([2H])([2H])N1C(=O)c2cccc(OC(F)F)c2[C@H]2C[C@@H]1c1nc3cc(F)c(-c4ccc(CP(C)(C)=O)c(F)c4)cc3n12 , IC50 observed: < 100 nM

compound [2H]C([2H])([2H])N1C(=O)c2cccc(OC(F)F)c2[C@H]2C[C@@H]1c1nc3ccc(-c4ccc(CP(C)(C)=O)c(F)c4F)cc3n12 , IC50 observed: < 100 nM

compound [2H]C([2H])([2H])N1C(=O)c2cccc(O)c2[C@H]2C[C@@H]1c1nc3ccc(-c4cc(F)c(P(C)(C)=O)cc4F)cc3n12 , IC50 observed: 10000 to 30000 nM

###

Molecular target: TNFα (Homo sapiens)
Assay: TNFα Induced HEK Blue Cellular Assay
Assay type: cell-based
assayMetric: IC50

> print(dat)
                                   compound         systemtested  assaymetric    result
1  [2H]C([2H])([2H])N1C(=O)c2cccc(OC(F)F)c2[C@H]2C[C@@H]1c1nc3ccc(-c4ccc(CP(=O)(OC)OC)cc4)cc3n12 [Example 83]  TNFα (Homo sapiens)         IC50  < 100 nM

Please turn your attention to the following entry.
Tested system TNFα (Homo sapiens); IC50 recorded for [2H]C([2H])([2H])N1C(=O)c2cccc(OC(F)F)c2[C@H]2C[C@@H]1c1nc3ccc(-c4ccc(CP(=O)(OC)OC)c(F)c4)cc3n12 [Example 136] was < 100 nM

###

We begin with a simple list: items and their reported pIC50.
Molecular target: TNFα (Homo sapiens)
Test: TNFα Induced HEK Blue Cellular Assay
Format: cell-based
Conditions: HEK Blue TNFα reporter cells, TNFα 100 pg/ml, 24 hrs at 37° C., secreted alkaline phosphatase (QUANTI-Blue) read at 620 nm; read-out: IC50 value
pIC50: −log10 of the molar value.

Solved cases below.
compound	systemTested	assayMetric	result
CP(C)(=O)c1ccc(-c2ccc3nc4n(c3c2)[C@@H]2C[C@H]4NC(=O)c3cccc(OC(F)F)c32)c(Cl)c1 [Example 41]	TNFα (Homo sapiens)	pIC50	> 7.00
[2H]C([2H])([2H])N1C(=O)c2cccc(OC(F)F)c2[C@H]2C[C@@H]1c1nc3ccc(-c4ccc(P(C)(C)=O)cc4C(F)(F)F)cc3n12 [Example 104]	TNFα (Homo sapiens)	pIC50	6.00 to 7.00
[2H]C([2H])([2H])N1C(=O)c2cccc(OC(F)F)c2[C@H]2C[C@@H]1c1nc3ccc(-c4c(F)cc(P(C)(C)=O)cc4F)cc3n12 [Example 63]	TNFα (Homo sapiens)	pIC50	> 7.00
CN1C(=O)c2cccc(OC(F)F)c2[C@H]2C[C@@H]1c1nc3ccc(-c4ccc(CP(C)(C)=O)cc4)cc3n12 [Example 33]	TNFα (Homo sapiens)	pIC50	> 7.00
[2H]C([2H])([2H])N1C(=O)c2cccc(OC(F)F)c2[C@H]2C[C@@H]1c1nc3ccc(-c4cc(F)c(C(C)P(C)(C)=O)c(F)c4)cc3n12 (single isomer, unassigned) [Example 109]	TNFα (Homo sapiens)	pIC50	> 7.00
[2H]C([2H])([2H])N1C(=O)c2cccc(OC(F)F)c2[C@H]2C[C@@H]1c1nc3ccc(-c4ccc([C@@](C)(O)P(C)(C)=O)cc4)cc3n12 (single isomer, unassigned) [Example 111]	TNFα (Homo sapiens)	pIC50	> 7.00
[2H]C([2H])([2H])N1C(=O)c2cccc(OC(F)F)c2[C@H]2C[C@@H]1c1nc3cc(F)c(-c4cnc(P(C)(C)=O)cc4C)cc3n12 [Example 89]	TNFα (Homo sapiens)	pIC50	4.52 to 5.00
CN1C(=O)c2cccc(OC(F)F)c2[C@H]2C[C@@H]1c1nc3ccc(-c4ccc(P5(=O)CCOCC5)nc4)cc3n12 [Example 6]	TNFα (Homo sapiens)	pIC50	> 7.00
Cc1cc(P(C)(C)=O)ccc1-c1ccc2nc3n(c2c1)[C@@H]1C[C@H]3N(C)C(=O)c2cccc(OC(F)F)c21 [Example 29]	TNFα (Homo sapiens)	pIC50	> 7.00
CN1C(=O)c2cccc(OC(F)F)c2[C@H]2C[C@@H]1c1nc3cc(F)c(-c4ccc(P(C)(C)=O)c(F)c4F)cc3n12 [Example 55]	TNFα (Homo sapiens)	pIC50	> 7.00

compound [2H]C([2H])([2H])N1C(=O)c2cccc(OC(F)F)c2[C@H]2C[C@@H]1c1nc3ccc(-c4cnc(P(=O)(CC)CC)c(F)c4)cc3n12 [Example 127] , pIC50 observed: > 7.00

compound [2H]C([2H])([2H])N1C(=O)c2cccc(OC(F)F)c2[C@H]2C[C@@H]1c1nc3ccc(-c4cnc(P(C)(C)=O)c(F)c4)cc3n12 [Example 124] , pIC50 observed: > 7.00

compound CP(C)(=O)c1ccc(-c2ccc3nc4n(c3c2)[C@@H]2C[C@H]4N(C3CC3)C(=O)c3cccc(OC(F)F)c32)cc1F [Example 48] , pIC50 observed: > 7.00

compound [2H]C([2H])([2H])N1C(=O)c2cccc(OC(F)F)c2[C@H]2C[C@@H]1c1nc3ccc(-c4ccc(CP(C)(C)=O)cc4F)cc3n12 [Example 67] , pIC50 observed: > 7.00

compound [2H]C([2H])([2H])N1C(=O)c2cccc(OC(F)F)c2[C@H]2C[C@@H]1c1nc3c(F)cc(-c4ccc(P(C)(C)=O)c(F)c4)cc3n12 [Example 135] , pIC50 observed: > 7.00
